System: human liver microsomes
Assay: BBR metabolism in human liver microsomes (HLMs)
Type: in vitro ADME
Settings: cell-free reaction, LC-MS/MS
observed_property: Detection of metabolite after incubating BBR with HLMs

INSERT INTO results (query_smiles, system, experimental_value) VALUES
  ('COc1ccc2cc3[n+](cc2c1OC)CCc1cc(O)c(O)cc1-3', 'human liver microsomes', 'detectable'),
  ('COc1cc2c(cc1O)CC[n+]1cc3c(OC)c(OC)ccc3cc1-2', 'human liver microsomes', 'not found'),
  ('COc1c(O)ccc2cc3[n+](cc12)CCc1cc2c(cc1-3)OCO2', 'human liver microsomes', 'detectable'),
  ('COc1ccc2cc3[n+](cc2c1O)CCc1cc2c(cc1-3)OCO2', 'human liver microsomes', 'not found');
